Origin of values: ChEMBL document CHEMBL1134761

Target: Interstitial collagenase (Homo sapiens)
Sequence (P03956 whole entry): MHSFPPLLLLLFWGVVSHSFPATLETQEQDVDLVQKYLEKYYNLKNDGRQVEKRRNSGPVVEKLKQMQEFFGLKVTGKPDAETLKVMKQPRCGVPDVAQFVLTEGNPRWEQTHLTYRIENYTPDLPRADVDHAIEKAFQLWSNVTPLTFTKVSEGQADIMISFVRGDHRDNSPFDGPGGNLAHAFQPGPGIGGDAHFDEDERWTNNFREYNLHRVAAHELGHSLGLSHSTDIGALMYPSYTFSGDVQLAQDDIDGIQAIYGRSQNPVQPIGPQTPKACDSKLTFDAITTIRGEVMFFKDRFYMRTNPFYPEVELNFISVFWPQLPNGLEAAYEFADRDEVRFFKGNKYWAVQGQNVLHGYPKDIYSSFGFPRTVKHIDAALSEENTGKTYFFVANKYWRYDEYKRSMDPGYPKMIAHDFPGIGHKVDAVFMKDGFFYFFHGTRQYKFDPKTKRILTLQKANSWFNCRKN
pKi: −log10 of the molar value.
measured property: pKi

These solved cases illustrate the format of a correct answer.
{"columns": ["smiles entry", "target or system", "pKi"],
 "data": [
  ["O=C(C[C@@H](CCCc1ccc(Cl)cc1)C(=O)N[C@@H](CC1CCCCC1)C(=O)NCCC(=O)NCCCCN1CCOCC1)NO", "Interstitial collagenase (Homo sapiens)", 6.50],
  ["COc1ccc(CCC[C@H](CC(=O)O)C(=O)N[C@@H](CC2CCCCC2)C(=O)NCCc2ccc(S(N)(=O)=O)cc2)cc1", "Interstitial collagenase (Homo sapiens)", 4.00],
  ["Cc1ccc(CCC[C@H](CC(=O)NO)C(=O)N[C@@H](CC2CCCCC2)C(=O)NCCC(=O)NCCc2ccc(S(N)(=O)=O)cc2)cc1", "Interstitial collagenase (Homo sapiens)", 6.48],
  ["O=C(C[C@@H](CCCc1ccc(Cl)cc1)C(=O)N[C@@H](CC1CCCCC1)C(=O)NCCC(=O)NCCC(=O)N1CCOCC1)NO", "Interstitial collagenase (Homo sapiens)", 6.50],
  ["Cc1ccc(CCC[C@H](CC(=O)O)C(=O)N[C@@H](CC2CCCCC2)C(=O)NCCCCN2CCOCC2)cc1", "Interstitial collagenase (Homo sapiens)", 4.00]
]}

1. O=C(C[C@@H](CCCc1ccc(Cl)cc1)C(=O)N[C@@H](CC1CCCCC1)C(=O)NCCC(=O)NCCNS(=O)(=O)N1CCOCC1)NO
2. Cc1ccc(CCC[C@H](CP(=O)(O)O)C(=O)N[C@@H](CC2CCCCC2)C(=O)NCCc2ccccc2)cc1
3. O=C(C[C@@H](CCCc1ccccc1)C(=O)N[C@@H](CC1CCCCC1)C(=O)NCCC(=O)NCCc1ccc(S(=O)(=O)O)cc1)NO
4. COC(=O)CCNC(=O)CCNC(=O)[C@H](CC1CCCCC1)NC(=O)[C@H](CCCc1ccc(Cl)cc1)CC(=O)NO
Rank order required: pKi, descending. List the labels in the requested order.
4, 1, 3, 2

---

target: Stromelysin-1 (Homo sapiens, UniProt P08254)
Sequence (P08254 whole entry): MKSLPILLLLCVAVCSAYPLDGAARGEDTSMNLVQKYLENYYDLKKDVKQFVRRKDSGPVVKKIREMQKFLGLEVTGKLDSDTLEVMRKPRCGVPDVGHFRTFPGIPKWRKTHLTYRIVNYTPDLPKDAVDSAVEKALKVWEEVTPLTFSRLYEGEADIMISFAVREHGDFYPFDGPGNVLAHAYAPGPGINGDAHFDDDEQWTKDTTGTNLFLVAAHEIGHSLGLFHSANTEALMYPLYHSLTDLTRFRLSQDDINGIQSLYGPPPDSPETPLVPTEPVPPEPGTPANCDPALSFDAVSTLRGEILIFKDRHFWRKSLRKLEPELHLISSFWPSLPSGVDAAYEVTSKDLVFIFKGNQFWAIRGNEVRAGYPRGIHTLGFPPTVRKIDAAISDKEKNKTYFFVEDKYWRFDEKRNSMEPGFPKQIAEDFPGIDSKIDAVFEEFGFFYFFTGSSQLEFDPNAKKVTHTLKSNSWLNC
pKi: −log10 of the molar value.
measured property: pKi

Below, each entry is followed by its recorded pKi result.
{"columns": ["smiles entry", "value measured"],
 "data": [
  ["Cc1ccc(CCC[C@H](CC(=O)NO)C(=O)N[C@@H](CC2CCCCC2)C(=O)NCCC(=O)NCCCCN(C)C)cc1", 8.23],
  ["Cc1ccc(CCC[C@H](CC(=O)O)C(=O)N[C@@H](CC2CCCCC2)C(=O)NCCCCN2CCOCC2)cc1", 5.80]
]}

1. CN(C)CCCCNC(=O)CCNC(=O)[C@H](CC1CCCCC1)NC(=O)[C@H](CCCc1ccc(Cl)cc1)CC(=O)NO
2. Cc1ccc(CCC[C@H](CC(=O)NO)C(=O)N[C@@H](CC2CCCCC2)C(=O)NCCC(=O)NCCc2ccc(S(N)(=O)=O)cc2)cc1
3. NS(=O)(=O)c1ccc(CCNC(=O)CCNC(=O)[C@H](CC2CCCCC2)NC(=O)[C@H](CCCc2ccc(Cl)cc2)CC(=O)NO)cc1
4. COC(=O)CCNC(=O)CCNC(=O)[C@H](CC1CCCCC1)NC(=O)[C@H](CCCc1ccc(Cl)cc1)CC(=O)NO
Order the records so the highest pKi appears first and the lowest last. List the labels according to the requested ordering.
4, 2, 3, 1
